Measured values drawn from patent US5026726A for this set.

- experiment: Cytotoxicity to MT4 cells (trypan blue exclusion)
- Type: cell-based
- studyConditions: human, mt4 cells; read-out: concentration at which toxicity to the host cell was shown
readoutType: MCC at 144 h (µM)
Numbers only, in µM.

compound	MCC at 144 h, µM
CC(=O)Oc1c(-c2c(C)cc3c(C(C)C)c(O)c(O)c(C#N)c3c2OC(C)=O)c(C)cc2c(C(C)C)c(O)c(O)c(C#N)c12 [Compound II, Gossylic nitrile-1,1'-diacetate]	250

Proceeding to the next compound to report its MCC at 144 h.
[ask] Returns the measured MCC at 144 h for the input compound. Input: Cc1cc2c(C(C)C)c(O)c(O)c3c2c(c1-c1c(C)cc2c(C(C)C)c(O)c(O)c4c2c1OC4=N)OC3=N
[reply] 50

* * *

- experiment: Cytotoxicity to MT4 cells (trypan blue exclusion)
- Type: cell-based
- studyConditions: human, mt4 cells
readoutType: CC50 at 144 h

[ask] Can you share its CC50 at 144 h? I mean this compound: Cc1cc2c(C(C)C)c(O)c(O)c3c2c(c1-c1c(C)cc2c(C(C)C)c(O)c(O)c4c2c1OC4=N)OC3=N [Compound III, gossylic iminolactone]
[reply] 25 to 50 µM
